System: U251 CNS
Assay: NCI tumour cell line growth inhibition, 48 h
endpoint name: TGI

[[record]]
molecule = "CCCN1CCC=C(c2ccc(Nc3nc(Nc4ccccc4C(N)=O)c4cc[nH]c4n3)c(C)c2)C1"
experimental_system = "U251 CNS"
endpoint_name = "TGI"
meas_value = "> 25 µM"

[[record]]
molecule = "C[C@H](CCC(=O)NCC(=O)O)[C@H]1CC[C@H]2[C@@H]3[C@H](O)C[C@@H]4C[C@H](O)CC[C@]4(C)[C@H]3CC[C@]12C"
experimental_system = "U251 CNS"
endpoint_name = "TGI"
meas_value = "> 100 µM"

[[record]]
molecule = "O=C1/C(=C\\c2ccccc2)C2OCC=C3CN4CCC56c7ccccc7N1C5C2C3CC46 (stereo not drawn)"
experimental_system = "U251 CNS"
endpoint_name = "TGI"
meas_value = "> 100 µM"

